Entries below carry reported pIC50 on Full length Akt2 (Homo sapiens, UniProt P31751).
Sequence (P31751 whole entry): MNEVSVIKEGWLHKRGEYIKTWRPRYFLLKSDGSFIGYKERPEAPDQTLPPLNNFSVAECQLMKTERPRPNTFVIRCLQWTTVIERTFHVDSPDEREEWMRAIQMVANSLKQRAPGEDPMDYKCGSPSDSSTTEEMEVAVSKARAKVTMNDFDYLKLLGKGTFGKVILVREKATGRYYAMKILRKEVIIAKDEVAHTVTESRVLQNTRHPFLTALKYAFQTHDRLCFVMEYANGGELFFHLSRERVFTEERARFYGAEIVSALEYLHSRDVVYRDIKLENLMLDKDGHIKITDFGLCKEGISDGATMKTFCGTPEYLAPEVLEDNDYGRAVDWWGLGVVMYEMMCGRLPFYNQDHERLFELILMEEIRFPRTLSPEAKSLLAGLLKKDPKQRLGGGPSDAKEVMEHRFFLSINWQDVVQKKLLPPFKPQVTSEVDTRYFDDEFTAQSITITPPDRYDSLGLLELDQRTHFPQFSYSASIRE
pIC50: −log10 of the molar value.

Recorded results for 3 molecules are shown here.
CCCOCc1cnn(C)c1-c1cc2c(cn1)C(=O)N([C@H](CN)Cc1cc(F)cc(F)c1)C2    > 6.30
Cn1ncc(Br)c1-c1cc2c(cn1)C(=O)N([C@H](CN)Cc1cc(F)cc(F)c1)C2    > 6.30
CNC(=O)c1ccc(-c2cnn(C)c2-c2ccc3c(c2)CN([C@H](CN)Cc2cccc(F)c2)C3=O)cn1    < 5.30

Attention now turns to another entry.
Form field pIC50, entry CC(C)NC[C@H](Cc1cccc(F)c1)N1Cc2cc(-c3c(Cl)cnn3C)ccc2C1=O : 5.30 to 6.30

====

Entries below carry reported IC50 on Full length Akt1 (Homo sapiens, UniProt P31749).
Sequence (P31749 whole entry): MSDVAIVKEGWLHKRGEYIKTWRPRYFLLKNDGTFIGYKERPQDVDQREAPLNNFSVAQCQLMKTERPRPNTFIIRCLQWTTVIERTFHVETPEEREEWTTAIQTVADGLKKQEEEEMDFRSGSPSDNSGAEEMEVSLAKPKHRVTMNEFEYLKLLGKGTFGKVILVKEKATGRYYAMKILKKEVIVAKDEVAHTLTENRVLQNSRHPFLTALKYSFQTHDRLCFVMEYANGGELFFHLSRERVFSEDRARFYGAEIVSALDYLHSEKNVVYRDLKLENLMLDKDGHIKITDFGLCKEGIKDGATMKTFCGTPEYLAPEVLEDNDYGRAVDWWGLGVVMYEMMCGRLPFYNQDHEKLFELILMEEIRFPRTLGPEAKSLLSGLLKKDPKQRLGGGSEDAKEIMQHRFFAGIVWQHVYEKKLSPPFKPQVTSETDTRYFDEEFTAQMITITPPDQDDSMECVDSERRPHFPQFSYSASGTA

Recorded results for 4 compounds are shown here.
COCc1cnn(C)c1-c1cc2c(cn1)C(=O)N([C@H](CN)Cc1cc(F)cc(F)c1)C2    < 500 nM
Cn1cc(-c2cccc(C[C@@H](CN)N3Cc4cc(-c5ccnn5C)ccc4C3=O)c2)cn1    500 to 5000 nM
Cn1ncc(Cl)c1-c1ccc2c(c1)CN([C@H](CN)Cc1cccc(C(F)(F)F)c1)C2=O (stereo in doubt)    < 500 nM
Cc1cnn(C)c1-c1cc2c(cn1)C(=O)N([C@H](CN)Cc1cc(F)cc(F)c1)C2    < 500 nM

Attention now turns to another entry.
Form field IC50, entry Cn1nccc1-c1ccc2c(n1)CN([C@H](CN)Cc1ccccc1)C2=O : 500 to 5000 nM

Hello, the source for this data is patent US8895571B2, in case you need it.
